Molecular target: recombinant human Syk (GST-hSyk fusion protein) (Homo sapiens, UniProt P43405)
Construct: purchased Carna Biosciences 08-176
Assay: Homogeneous Time-Resolved Fluorescence (HTRF) assay for the recombinant human Syk enzyme
Type: biochemical
Conditions: IC50 class; 10-dose titration, 25 μM ATP; read-out: rhSYK Activity
Protocol: Syk inhibition may be determined using the following assay protocol: Homogeneous Time-Resolved Fluorescence (HTRF) Assay for the Recombinant Human Syk Enzyme: A recombinant GST-hSyk fusion protein was used to measure potency of compounds to inhibit human Syk activity. […] The resulting HTRF signal was measured after 30 minutes on an EnVision (Perkin-Elmer) reader using a time-resolved fluorescence protocol. […]
pIC50: −log10 of the molar value.
Entries and their measured pIC50 follow.

> print(dat)
                                   molecule  measured.property   measurement
1  Cc1cc(Nc2nccc(C(F)F)n2)cc(-c2cnn(C[C@@H]3CNCCO3)c2)c1 [Example 2.83]              pIC50        ≥ 7.00
2  Cc1cc(Nc2nccc(C(F)F)n2)cc(-c2cnn(CC3CCNC(=O)O3)c2)c1 (centres unmarked) [Example 2.78]              pIC50        ≥ 7.00
3  Cc1cc(Nc2nccc(C(F)(F)F)n2)cc(-c2cnn(CC3OC(=O)NC3C(C)C)c2)c1 (single isomer, unassigned) [Example 23.4]              pIC50        ≥ 7.00
4  CCOC(=O)CCc1cnn(-c2cc(C)cc(Nc3nccc(C)n3)c2)c1 [Example 19.6]              pIC50  6.00 to 7.00
5  Cc1cc(Nc2nccc(C(F)F)n2)cc(-c2cnn(C3CCCC(C)(O)C3O)c2)c1 (centres unmarked) [Example 22.6]              pIC50        ≥ 7.00
6  CCOC(=O)CCn1cc(-c2cccc(Nc3cc(C)ccn3)n2)cn1 [Example 1.23]              pIC50  6.00 to 7.00

Problem: Identify the measured pIC50 of Cc1cc(Nc2nccc(C(F)(F)F)n2)cc(-c2cnn(C[C@H](O)C(N)=O)c2)c1 [Example 7.4] for recombinant human Syk (GST-hSyk fusion protein) (Homo sapiens, UniProt P43405).
Result: ≥ 7.00

Problem: Input Cc1cc(Nc2nccc(C3CC3)n2)cc(-c2cnn(CCC(=O)O)c2)c1 [Example 2.40]
Result: ≥ 7.00

----------
biological target: recombinant human Syk (GST-hSyk fusion protein) (Homo sapiens, UniProt P43405); construct: purchased Carna Biosciences 08-176; experiment: Homogeneous Time-Resolved Fluorescence (HTRF) assay for the recombinant human Syk enzyme; type: biochemical; conditions: IC50 class; 10-dose titration, 25 μM ATP; read-out: rhSYK Activity
Measured Property: IC50

Completed entries (count: 7):
> print(dat)
                                   molecule  measured.property     measurement
1  COC(=O)c1ccc(C(O)Cn2cc(-c3cc(C)cc(Nc4nccc(C(F)(F)F)n4)c3)cn2)cc1 (centres unmarked) [Example 3.54]               IC50        ≤ 100 nM
2  Cc1cc(Nc2nccc(C)n2)cc(-c2cnn(C3CCCC(O)C3O)c2)c1 (centres unmarked) [Example 10.8]               IC50        ≤ 100 nM
3  Cc1cc(Nc2nccc(C(F)(F)F)n2)cc(-c2cnn(CC(=O)N3CCCC3)c2)c1 [Example 3.27]               IC50        ≤ 100 nM
4  Cc1cc(Nc2cc(C(F)F)ccn2)nc(-c2cnn(C(C)C3CNC(=O)O3)c2)c1 (centres unmarked) [Example 3.88]               IC50        ≤ 100 nM
5  Cc1ccnc(Nc2cc(C)cc(-c3cnn(CC4(O)CCC4)c3)n2)c1 [Example 29.3]               IC50        ≤ 100 nM
6  Cc1cc(Nc2nccc(C)n2)cc(-c2cnn(C3CCCC(O)C3O)c2)c1 (centres unmarked) [Example 10.9]               IC50        ≤ 100 nM
7  Cc1cc(Nc2nccc(C(F)(F)F)n2)cc(-c2n[nH]c3ccccc23)c1 [Example 2.47]               IC50  100 to 1000 nM

Query molecule follows.
Problem: Identify the measured IC50 of COC1CC(O)(Cn2cc(-c3cc(C)cc(Nc4nccc(C)n4)c3)cn2)C1 (centres unmarked) [Example 12.3] for recombinant human Syk (GST-hSyk fusion protein) (Homo sapiens, UniProt P43405).
Result: ≤ 100 nM

----------
Entries and their measured IC50 follow.
molecular target: recombinant human Syk (GST-hSyk fusion protein) (Homo sapiens); construct: purchased Carna Biosciences 08-176; test: Homogeneous Time-Resolved Fluorescence (HTRF) assay for the recombinant human Syk enzyme; format: biochemical; settings: IC50 class; 10-dose titration, 25 μM ATP; read-out: rhSYK Activity

> print(dat)
                                   compound  measurement
1  Cc1cc(Nc2nccc(C(F)F)n2)cc(-c2cnn(CC(O)(CO)C(F)(F)F)c2)c1 (single isomer, unassigned) [Example 32.1]     ≤ 100 nM

Problem: Any idea what IC50 was measured for Cc1cc(Nc2nccc(C(F)F)n2)cc(-c2cnn(C(C[C@H](C)O)[C@H](C)O)c2)c1 (stereo in doubt) [Example 2.55] ?
Result: ≤ 100 nM

Problem: Input NC(=O)CCn1cc(-c2cccc(Nc3nccc(C(F)(F)F)n3)c2)cn1
Result: ≤ 100 nM

Problem: Input Cc1cc(Nc2nccc(C(F)F)n2)cc(-c2cnn(C3CCC(C)(C)C(O)C3(C)O)c2)c1 (stereo not drawn)
Result: ≤ 100 nM

Problem: Input Cc1cc(Nc2nccc(C(F)F)n2)cc(-c2cnn(CCNC(=O)OCCF)c2)c1
Result: ≤ 100 nM

Problem: Input Cc1cc(Nc2nccc(C(F)(F)F)n2)cc(-c2cnn(CC3(O)CCNCC3)c2)c1
Result: 100 to 1000 nM

Problem: Input Cc1cc(Nc2nccc(C(F)(F)F)n2)cc(-c2cnn(CC3(O)CCOCC3)c2)c1
Result: ≤ 100 nM

Problem: Input Cc1cc(Nc2cc(C(F)(F)F)ccn2)nc(-c2cnn(CCC(=O)O)c2)c1
Result: ≤ 100 nM

Problem: Input Cc1cc(Nc2nccc(C(F)(F)F)n2)cc(-c2cnn(C3CCC(C(=O)O)C(C)(C)C3)c2)c1 (stereo not drawn)
Result: ≤ 100 nM

Problem: Input Cc1cc(Nc2cc(C(F)(F)F)ccn2)nc(-c2cnn3c2CCC3)c1
Result: ≤ 100 nM

Problem: Input Cc1cc(Nc2ncc(F)c(C(F)F)n2)cc(-c2cnn([C@@H]3CCC[C@@H](O)[C@H]3O)c2)c1 (single isomer, unassigned)
Result: ≤ 100 nM

Problem: Input Cc1cc(Nc2nccc([C@@H](C)F)n2)cc(-c2cnn(CC(C)(O)CO)c2)c1 (single isomer, unassigned) [Example 25.8]
Result: ≤ 100 nM

Problem: Input Cc1cc(Nc2nccc(C(F)F)n2)cc(-c2cnn(Cc3c[nH]cn3)c2)c1
Result: ≤ 100 nM

Problem: Input Cc1cc(Nc2nccc(C(F)F)n2)cc(-c2cnn([C@H]3CC[C@H](C(=O)O)CC3)c2)c1
Result: ≤ 100 nM

Problem: Input Cc1cc(Nc2nccc(C(F)(F)F)n2)cc(-n2cc(CCC(=O)O)cn2)c1
Result: ≤ 100 nM

----------
target: recombinant human Syk (GST-hSyk fusion protein) (Homo sapiens, UniProt P43405); construct: purchased Carna Biosciences 08-176; assay: Homogeneous Time-Resolved Fluorescence (HTRF) assay for the recombinant human Syk enzyme; type: biochemical; conditions: IC50 class; 10-dose titration, 25 μM ATP; read-out: rhSYK Activity
pIC50: −log10 of the molar value.
Entries and their measured pIC50 follow.

Completed entries (count: 3):
> print(dat)
                                   molecule   measurement
1  Cc1cc(Nc2nccc(C(F)F)n2)cc(-c2cnn(CC(C)(O)C(C)(C)O)c2)c1 (stereo not shown) [Example 21.6]        ≥ 7.00
2  CCOC(Cn1cc(-c2cc(C)cc(Nc3nccc(C(F)(F)F)n3)c2)cn1)OCC  6.00 to 7.00
3  Cc1cc(Nc2nccc(C(F)(F)F)n2)cc(-c2cnn(C[C@H](O)C(=O)NCCO)c2)c1        ≥ 7.00

Query molecule follows.
Problem: Any idea what pIC50 was measured for CCOC(=O)CCn1cc(-c2cc(C)cc(Nc3nccc(C(F)(F)F)n3)c2)cn1 ?
Result: ≥ 7.00

----------
Entries and their measured pIC50 follow.
target: recombinant human Syk (GST-hSyk fusion protein) (Homo sapiens); construct: purchased Carna Biosciences 08-176; experiment: Homogeneous Time-Resolved Fluorescence (HTRF) assay for the recombinant human Syk enzyme; type: biochemical; details: IC50 class; 10-dose titration, 25 μM ATP; read-out: rhSYK Activity
pIC50: −log10 of the molar value.

Completed entries (count: 5):
> print(dat)
                                   compound  measured.property   measurement
1  Cc1cc(Nc2nccc(C(F)F)n2)cc(-c2cnn(CC3OC(=O)NC34CC4)c2)c1 (centres unmarked) [Example 3.94]              pIC50        ≥ 7.00
2  Cc1cc(Nc2nccc(C)n2)cc(-c2cnn(CC3(O)CCC3)c2)c1              pIC50        ≥ 7.00
3  CCOC(=O)CCn1cc(-c2cc(C)cc(Nc3cc(C)ccn3)n2)cn1              pIC50  6.00 to 7.00
4  Cc1cc(Nc2ncc(F)c(C(F)F)n2)cc(-c2cnn(CC3OC(=O)NC3C)c2)c1 (single isomer, unassigned) [Example 23.20]              pIC50        ≥ 7.00
5  Cc1cc(Nc2cc(C(F)(F)F)ccn2)nc(-c2cnn(C(=O)OC(C)(C)C)c2)c1              pIC50        ≥ 7.00

Problem: Identify the measured pIC50 of Cc1cc(Nc2nccc(C(C)O)n2)cc(-c2cnn(C[C@](C)(O)CO)c2)c1 (some centres unmarked) for recombinant human Syk (GST-hSyk fusion protein) (Homo sapiens).
Result: ≥ 7.00

Problem: Input Cc1cc(Nc2nccc(C(C)C)n2)cc(-c2cnn(C[C@H](O)C(N)=O)c2)c1
Result: ≥ 7.00

Problem: Input CCOC(=O)CCn1cc(-c2cccc(Nc3nccc(C(F)(F)F)n3)c2)cn1
Result: 6.00 to 7.00
